Molecular target: Neurotensin receptor type 2 (Homo sapiens)
Sequence (O95665 whole entry): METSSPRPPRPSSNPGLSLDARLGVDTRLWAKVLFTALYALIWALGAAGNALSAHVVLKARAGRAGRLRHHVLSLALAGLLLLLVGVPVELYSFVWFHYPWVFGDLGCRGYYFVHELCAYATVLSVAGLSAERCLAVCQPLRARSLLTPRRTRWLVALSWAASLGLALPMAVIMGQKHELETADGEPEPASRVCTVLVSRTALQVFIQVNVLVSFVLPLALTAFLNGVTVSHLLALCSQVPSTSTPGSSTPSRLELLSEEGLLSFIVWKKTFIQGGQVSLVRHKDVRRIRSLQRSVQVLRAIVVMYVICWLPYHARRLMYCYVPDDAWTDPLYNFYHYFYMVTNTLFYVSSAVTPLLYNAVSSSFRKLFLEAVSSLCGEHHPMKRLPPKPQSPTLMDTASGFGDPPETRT
Assay: Displacement of [125I]-neurotensin from human recombinant NTS2 stably expressed in human 1321N1 cell membranes incubated for 60 mins by gamma counter method
Numbered stars: 1 amine (or outer) side, 2 acyl side, 3 side chain; on linkers, the order of the positions; unused ones are H or OH. Square brackets hold non-standard residues; d marks the D form. Peptide text beside a SMILES is read from it. X1 = O=C1[C@@H](N[*:1])Cc2ccccc2CN1CCC(=O)[*:2]; X2 = O=C([C@@H]1Cc2cc(O)ccc2CN1[*:1])[*:2]; Dmt = Cc1cc(O)cc(C)c1C[C@H](N)C(=O)O; mTyr = N[C@@H](Cc1cccc(O)c1)C(=O)O; Tle = CC(C)(C)[C@H](N)C(=O)O
Reported log10 of Ki is given for each of the following compounds.
Scale: log10; quantity: Ki; unit before log: nM

Please review the entries below; each comes with its answer.
Cc1cc(O)cc(C)c1C[C@H](N)C(=O)N[C@H](CCCNC(=N)N)C(=O)N[C@H]1Cc2ccccc2CN(CCC(=O)N[C@@H](CCCNC(=N)N)C(=O)N[C@@H](CCCNC(=N)N)C(=O)N2CCC[C@H]2C(=O)N[C@@H](Cc2cccc(O)c2)C(=O)N[C@H](C(=O)N[C@@H](CC(C)C)C(=O)O)C(C)(C)C)C1=O (H-[Dmt][dR][X1]RRP[mTyr][Tle]L-OH) :: -0.48
CC(C)C[C@H](NC(=O)[C@@H](NC(=O)[C@@H]1Cc2cc(O)ccc2CN1C(=O)[C@@H]1CCCN1C(=O)[C@H](CCCNC(=N)N)NC(=O)[C@@H](N)CCCNC(=N)N)C(C)(C)C)C(=O)O (H-RRP[X2][Tle]L-OH) :: 2.12
Cc1cc(O)cc(C)c1C[C@H](NC(=O)[C@@H]1CCCN1C(=O)[C@H](CCCNC(=N)N)NC(=O)[C@@H](N)CCCNC(=N)N)C(=O)N[C@H](C(=O)N[C@@H](CC(C)C)C(=O)O)C(C)(C)C :: 0.48
Cc1cc(O)cc(C)c1C[C@H](N)C(=O)N[C@H](CCCNC(=N)N)C(=O)N[C@H]1Cc2ccccc2CN(CCC(=O)N[C@@H](CCCCN)C(=O)N[C@@H](CCCCN)C(=O)N2CCC[C@H]2C(=O)N[C@@H](Cc2ccc(O)cc2)C(=O)N[C@H](C(=O)N[C@@H](CC(C)C)C(=O)O)C(C)(C)C)C1=O (H-[Dmt][dR][X1]KKPY[Tle]L-OH) :: -0.54
Cc1cc(O)cc(C)c1C[C@H](N)C(=O)N[C@H](CCCNC(=N)N)C(=O)N[C@H]1Cc2ccccc2CN(CCC(=O)N[C@@H](CCCCN)C(=O)N[C@@H](CCCCN)C(=O)N2CCC[C@H]2C(=O)N2Cc3ccc(O)cc3C[C@H]2C(=O)N[C@H](C(=O)N[C@@H](CC(C)C)C(=O)O)C(C)(C)C)C1=O (H-[Dmt][dR][X1]KKP[X2][Tle]L-OH) :: 1.88

Q) Fill in: log10 of Ki of Cc1cc(O)cc(C)c1C[C@H](NC(=O)[C@@H]1CCCN1C(=O)[C@H](CCCCN)NC(=O)[C@H](CCCCN)NC(=O)CCN1Cc2ccccc2C[C@H](NC(=O)[C@@H](CCCNC(=N)N)NC(=O)[C@@H](N)Cc2c(C)cc(O)cc2C)C1=O)C(=O)N[C@H](C(=O)N[C@@H](CC(C)C)C(=O)O)C(C)(C)C (H-[Dmt][dR][X1]KKP[Dmt][Tle]L-OH) is ___
A) -0.80

Q) Fill in: log10 of Ki of Cc1cc(O)cc(C)c1C[C@H](N)C(=O)N[C@H](CCCNC(=N)N)C(=O)N[C@H]1Cc2ccccc2CN(CCC(=O)N[C@@H](CCCNC(=N)N)C(=O)N[C@@H](CCCNC(=N)N)C(=O)N2CCC[C@H]2C(=O)N2Cc3ccc(O)cc3C[C@H]2C(=O)N[C@H](C(=O)N[C@@H](CC(C)C)C(=O)O)C(C)(C)C)C1=O (H-[Dmt][dR][X1]RRP[X2][Tle]L-OH) is ___
A) 0.24

Source: ChEMBL document CHEMBL4699489
